- System: TRPC4 beta (transient receptor potential cation channel C4), mouse
- assay-remarks: TRPC4 cation channel opening, retest – cell-based, Fluo4 calcium, HEK293 TRPC4beta/mu-opioid, duplicates, 10 µM, confirmation (AID 2426)
- experimental-setup: Fluo4 calcium fluorescence, at 10 µM
Active and inactive are the calls of the source.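 Rule for the calls: active = fluorescence ratio normalized to control raised more than 50% in primary screen plus both repeat runs; inactive = the rest.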
Pick from Y for active, N for inactive when you respond.

compound: CCOC(=O)c1c(NC(=O)COC(=O)CCOc2ccc(OCC)cc2)sc(C(=O)N(C)C)c1C
assigned-class: N
--
compound: Cc1nn(C(=O)CNS(=O)(=O)c2ccccc2)c(C)c1Sc1ccc(Cl)cc1
assigned-class: N
--
compound: CCCCN(CC)CCCNC(=O)Cn1nc(Cc2cccnc2)c2ccccc2c1=O
assigned-class: Y
--
compound: CCC1CCCCN1CCN1C(=O)C2C(C(=O)Nc3ccc(OC)cc3)C3C=CC2(O3)C1C(=O)NC1CCCCC1 (stereo unspecified)
assigned-class: N
--
compound: OCCNCc1cc(Br)ccc1OCc1ccccc1
assigned-class: N
--
compound: CCCn1nc([N+](=O)[O-])c(C(C#N)c2nc3ccccc3o2)c(Cl)c1=O (stereo unspecified)
assigned-class: N
--
compound: Cc1cccc(/C=N/NC(=O)c2cc(Br)ccc2O)n1
assigned-class: N
--
compound: CC(C)CCn1c(Sc2nc3ccccc3o2)nc2c1c(=O)[nH]c(=O)n2C
assigned-class: N
--
compound: CN(CCc1ccccn1)C(=O)CC1C(=O)NCCN1Cc1cccc(F)c1 (stereo unspecified)
assigned-class: Y
--
compound: CN(C)c1ccc(NC(=O)C2C3C=CC(C3)C2C(=O)O)cc1 (stereo unspecified)
assigned-class: N

Below: the item to evaluate.
Exercise: Hey, what did the test say about COc1ccc2nc(SCCN(C)C)[nH]c2c1 ?
Key: Y
